testedSystem: Dimer of Gag-Pol polyprotein [489-587] (Human immunodeficiency virus 1)
Construct: 489-587
testDescription: Protease Inhibition Assay
endpoint: Ki (nM)
Answer format: numeric, nM implied, no suffix.

- mol: "COc1ccc(CN[C@@H](C(=O)N[C@H]2c3ccccc3C[C@H]2O)[C@H](O)[C@H](Cc2ccccc2)NC(=O)[C@@H](NC(=O)/C=C/c2ccc(OC)cc2O)C(C)(C)C)cc1"
  unitTag: "nM"
  Ki: 18
- mol: "COc1ccc(CN[C@@H](C(=O)N[C@H]2c3ccccc3C[C@H]2O)[C@H](O)[C@H](Cc2ccccc2)NC(=O)[C@@H](NC(=O)/C=C/c2ccc(OC)c(O)c2)C(C)(C)C)cc1"
  unitTag: "nM"
  Ki: 5.8
- mol: "COc1ccc(CN[C@@H](C(=O)N[C@H]2c3ccccc3C[C@H]2O)[C@H](O)[C@H](Cc2ccccc2)NC(=O)[C@@H](NC(=O)CSc2nncn2C)C(C)(C)C)cc1"
  unitTag: "nM"
  Ki: 5.8

Query :: Would you mind telling me what Ki value was observed for `COc1ccc(CN[C@@H](C(=O)N[C@H]2c3ccccc3C[C@H]2O)[C@H](O)[C@H](Cc2ccccc2)NC(=O)[C@@H](NC(=O)OC(C)(C)C)C(C)(C)C)cc1` ?
Result :: 210

Query :: Entry `COc1ccc(CN[C@@H](C(=O)N[C@H]2c3ccccc3C[C@H]2O)[C@H](O)[C@H](Cc2ccccc2)NC(=O)[C@@H](NC(=O)CCc2ccc(OC)c(O)c2)C(C)(C)C)cc1` : reported Ki = ?
Result :: 7.7

====

The following compounds are listed with their measured pKi values.
testedSystem: Dimer of Gag-Pol polyprotein [489-587] (Human immunodeficiency virus 1, UniProt P12497)
Construct: 489-587
testDescription: Protease Inhibition Assay
In plain terms, pKi is the concentration in mol/L turned into minus its base-10 logarithm.

For orientation, consider the following solved cases.
- mol: "CC(C)(C)[C@H](NC(=O)OCc1ccccc1)C(=O)N[C@@H](Cc1ccccc1)[C@@H](O)[C@@H](NCc1ccc(CNC(=O)CCc2nc3ccccc3[nH]2)cc1)C(=O)N[C@H]1c2ccccc2C[C@H]1O"
  pKi: 8.39
- mol: "COc1ccc(CN[C@@H](C(=O)N[C@H]2c3ccccc3C[C@H]2O)[C@H](O)[C@H](Cc2ccccc2)NC(=O)[C@@H](NC(=O)CSc2nnc(C)s2)C(C)(C)C)cc1"
  pKi: 8.10

Moving on to another compound below.
Query :: pKi for `COc1ccc(CN[C@@H](C(=O)N[C@H]2c3ccccc3C[C@H]2O)[C@H](O)[C@H](Cc2ccccc2)NC(=O)[C@@H](NC(=O)CCc2ccccc2O)C(C)(C)C)cc1` ?
Result :: 7.89

====

testedSystem: Dimer of Gag-Pol polyprotein [489-587] (Human immunodeficiency virus 1, UniProt P12497)
Construct: 489-587
testDescription: Protease Inhibition Assay
reportedConditions: pH 6.25; 37 °C
Class (by Ki) -- low value: < 20 nM; medium value: ≥ 20 nM and < 90 nM; high value: ≥ 90 nM

Example results:
- compound: "CC(C)(C)OC(=O)N[C@@H](Cc1ccccc1)[C@@H](O)[C@@H](NCc1ccc(OCCO)cc1)C(=O)NCc1ccccc1"
  testedSystem: "Dimer of Gag-Pol polyprotein [489-587] (Human immunodeficiency virus 1, UniProt P12497)"
  groupLabel: "high value"
- compound: "CC(C)(C)OC(=O)N[C@@H](Cc1ccccc1)[C@@H](O)[C@@H](NCc1ccc(CNC(=O)CCc2nc3ccccc3[nH]2)cc1)C(=O)NCc1ccccc1"
  testedSystem: "Dimer of Gag-Pol polyprotein [489-587] (Human immunodeficiency virus 1, UniProt P12497)"
  groupLabel: "high value"
- compound: "CC(C)(C)OC(=O)N[C@@H](Cc1ccccc1)[C@@H](O)[C@@H](NCc1ccc(OCCN2CCOCC2)cc1)C(=O)N[C@H]1c2ccccc2C[C@H]1O"
  testedSystem: "Dimer of Gag-Pol polyprotein [489-587] (Human immunodeficiency virus 1, UniProt P12497)"
  groupLabel: "high value"

Query :: Which class does `COc1ccc(CN[C@@H](C(=O)N[C@H](C(=O)NCc2nc3ccccc3[nH]2)C(C)C)[C@H](O)[C@H](Cc2ccccc2)NC(=O)OC(C)(C)C)cc1` fall in?
Result :: low value

Query :: Band assignment needed for `CC(C)(C)OC(=O)N[C@@H](Cc1ccccc1)[C@@H](O)[C@@H](NCc1ccc(OCCO)cc1)C(=O)N[C@H]1c2ccccc2C[C@H]1O` please.
Result :: medium value

Query :: Would you mind sorting `COc1ccc(CN[C@@H](C(=O)N[C@H]2c3ccccc3C[C@H]2O)[C@H](O)[C@H](Cc2ccccc2)NC(=O)OC(C)(C)C)cc1` into the appropriate category?
Result :: medium value

Query :: Please report the category associated with COc1ccc(CN[C@@H](C(=O)N[C@H]2c3ccccc3C[C@H]2O)[C@H](O)[C@H](Cc2ccccc2)NC(=O)C(NC(=O)OCc2ccccc2)C(C)C)cc1 (stereo partly drawn) , nothing else.
Result :: low value

Query :: Please indicate the class for `CC(C)(C)OC(=O)N[C@@H](Cc1ccccc1)[C@@H](O)[C@@H](NCc1ccccc1)C(=O)NCc1ccccc1` based on its Ki.
Result :: high value

Query :: Which band does `CC(C)(C)OC(=O)N[C@@H](Cc1ccccc1)[C@@H](O)[C@@H](NCc1ccc(CNC(=O)Nc2ccccc2)cc1)C(=O)N[C@H]1c2ccccc2C[C@H]1O` fall in?
Result :: medium value

Query :: Returns: class label. Input: CCC(C)C(NC(=O)OCc1ccccc1)C(=O)N[C@@H](Cc1ccccc1)[C@@H](O)[C@@H](NCc1ccc(OC)cc1)C(=O)N[C@H]1c2ccccc2C[C@H]1O (stereo partly drawn)
Result :: low value

Query :: Could you tell me which band COc1ccc(CN[C@@H](C(=O)N[C@H]2c3ccccc3C[C@H]2O)[C@H](O)[C@H](Cc2ccccc2)NC(=O)C(CC(=O)O)NC(=O)OCc2ccccc2)cc1 (stereo partly drawn) belongs to?
Result :: medium value

Query :: Classify this compound: COc1ccc(CN[C@@H](C(=O)N[C@H]2c3ccccc3C[C@H]2O)[C@H](O)[C@H](Cc2ccccc2)NC(=O)C(CC(N)=O)NC(=O)OCc2ccccc2)cc1 (stereo partly drawn)
Result :: low value

Every entry's value here was drawn from BindingDB's records for doi:10.1021/jm9508696.
